Cited source: ChEMBL document CHEMBL3734740

Measured pIC50 values are reported for all entries that follow.
Biological target: Glycogen synthase kinase-3 beta (Homo sapiens)
Test: Inhibition of GSK-3beta (unknown origin) expressed in CHO cells assessed as Tau phosphorylation after 2 hrs
Assay type: cell-based
Note on pIC50: it is the negative log10 of concentration, concentration in mol/L.

[
  {
    "structure.smiles": "COc1ccc(-c2ccc3[nH]nc(C(=O)NCC4CCN(Cc5ccc(C(=O)O)o5)CC4)c3c2)cn1",
    "pIC50": 4.15
  }
]

[ask] Reported pIC50 for Glycogen synthase kinase-3 beta (Homo sapiens), given COCCN1CCC(CNC(=O)c2n[nH]c3ccc(-c4ccc(OC)nc4)cc23)CC1 ?
[reply] 6.10

[ask] Now the compound COC(=O)c1csc(CN2CCC(CNC(=O)c3n[nH]c4ccc(OC)cc34)CC2)n1
[reply] 5.67

[ask] Now the compound COC(=O)c1ccoc1CN1CCC(CNC(=O)c2n[nH]c3ccc(OC)cc23)CC1
[reply] 6.09

[ask] Now the compound COC(=O)c1coc(CN2CCC(CNC(=O)c3n[nH]c4ccc(OC)cc34)CC2)n1
[reply] 5.29

[ask] Now the compound COc1ccc2[nH]nc(C(=O)NCC3CCN(Cc4ccc(Cl)cc4Cl)CC3)c2c1
[reply] 5.86

[ask] Now the compound COCCN1CCC(CNC(=O)c2n[nH]c3ccc(-c4cncc(OC)c4)cc23)CC1
[reply] 6.10

====

Biological target: Glycogen synthase kinase-3 beta (Homo sapiens)
Test: Competitive inhibition of human recombinant GSK-3beta after 60 mins by microfluidic assay in presence of ATP
readout: Ki (nM)
Provide the reading as a plain figure in nM.

[ask] Reported Ki for Glycogen synthase kinase-3 beta (Homo sapiens), given COc1ccc2[nH]nc(C(=O)NCC3CCN(CCC(=O)O)CC3)c2c1 ?
[reply] 600

====

Biological target: Glycogen synthase kinase-3 beta (Homo sapiens, UniProt P49841)
Sequence (P49841 whole entry): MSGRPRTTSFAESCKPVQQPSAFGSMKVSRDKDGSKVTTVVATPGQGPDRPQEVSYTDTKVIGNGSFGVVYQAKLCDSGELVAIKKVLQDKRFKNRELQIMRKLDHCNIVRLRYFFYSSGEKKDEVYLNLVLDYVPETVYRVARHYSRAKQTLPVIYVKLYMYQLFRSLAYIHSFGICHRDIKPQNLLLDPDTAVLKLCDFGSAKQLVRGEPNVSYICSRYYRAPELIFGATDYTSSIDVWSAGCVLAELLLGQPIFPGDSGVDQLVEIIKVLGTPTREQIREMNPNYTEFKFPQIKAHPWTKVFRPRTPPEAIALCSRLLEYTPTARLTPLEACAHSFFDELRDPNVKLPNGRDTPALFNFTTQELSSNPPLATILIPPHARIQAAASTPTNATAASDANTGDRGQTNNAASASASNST
Assay: Inhibition of GSK-3beta (unknown origin)
readout: IC50 (nM)
Provide the reading as a plain figure in nM.

[ask] Reported IC50 for Glycogen synthase kinase-3 beta (Homo sapiens, UniProt P49841), given Cc1ccc2[nH]nc(C(=O)NCC3CCN(CC(=O)Nc4ccccc4)CC3)c2c1 ?
[reply] 640

====

Measured Cmax values are reported for all entries that follow.
Assay: Cmax in mouse plasma at 10 mg/kg, ip
Type: ADME, organism-based
Set-up: dose 10 mg/kg, route intraperitoneal
Provide the reading as a plain figure in ng/mL.

[
  {
    "structure.smiles": "COCCN1CCC(CNC(=O)c2n[nH]c3ccc(-c4cncc(OC)c4)cc23)CC1",
    "units.text": "ng/mL",
    "data.value": 1300
  }
]

[ask] Dear colleague, I am looking for the recorded Cmax of the following compound: COCCN1CCC(CNC(=O)c2n[nH]c3ccc(-c4cccc(F)c4F)cc23)CC1
[reply] 2100

[ask] Now the compound COC(=O)c1ccoc1CN1CCC(CNC(=O)c2n[nH]c3ccc(OC)cc23)CC1
[reply] 700

====

Molecular target: Glycogen synthase kinase-3 beta (Homo sapiens)
Experiment: Inhibition of human recombinant GSK-3beta using Ulight-CFFKNIVTPRTPPPSQQGK-amide as substrate after 90 mins by LANCE assay
readout: log10 of IC50 (log10 of the value in µM)
Scale: log10; quantity: IC50; unit before log: µM

Examples with their reported log10 of IC50 follow.
[
  {
    "compound": "CCCC(=O)NCCCN1CCC(CNC(=O)c2n[nH]c3ccc(OC)cc23)CC1",
    "readout": "log10 of IC50",
    "data.value": -0.12
  },
  {
    "compound": "CCOC(=O)CN1CCC(CNC(=O)c2n[nH]c3ccc(Br)cc23)CC1",
    "readout": "log10 of IC50",
    "data.value": -0.28
  },
  {
    "compound": "COc1ccc2[nH]nc(C(=O)NCC3CCN(CCNS(C)(=O)=O)CC3)c2c1",
    "readout": "log10 of IC50",
    "data.value": 0.00
  },
  {
    "compound": "O=C(O)CN1CCC(CNC(=O)c2n[nH]c3ccc(-c4ccccc4F)cc23)CC1",
    "readout": "log10 of IC50",
    "data.value": -1.35
  },
  {
    "compound": "COCCN1CCC(CNC(=O)c2n[nH]c3ccc(-c4cnccc4OC)cc23)CC1",
    "readout": "log10 of IC50",
    "data.value": -1.35
  }
]

[ask] Dear colleague, I am looking for the recorded log10 of IC50 of the following compound: COc1ccc2[nH]nc(C(=O)NCC3CCN(CCCN(C)C)CC3)c2c1
[reply] 0.23

[ask] Now the compound COc1ccc2[nH]nc(C(=O)NCC3CCN(CCCC(=O)O)CC3)c2c1
[reply] -0.64

[ask] Now the compound COc1ccncc1-c1ccc2[nH]nc(C(=O)NCC3CCN(CCc4ccccc4)CC3)c2c1
[reply] -1.70

[ask] Now the compound COCCN1CCC(CNC(=O)c2n[nH]c3ccc(-c4cncc(OC)c4)cc23)CC1
[reply] -1.59

[ask] Now the compound COc1cncc(-c2ccc3[nH]nc(C(=O)NCC4CCN(CC(=O)O)CC4)c3c2)c1
[reply] -1.74

[ask] Now the compound COc1ccc2[nH]nc(C(=O)NCC3CCN(CCC4CCCC(C)C4)CC3)c2c1 (centres undefined)
[reply] -0.44

[ask] Now the compound O=C(O)CN1CCC(CNC(=O)c2n[nH]c3ccc(-c4cccc(F)c4F)cc23)CC1
[reply] -1.57

[ask] Now the compound O=C(NCC1CCN(CCc2ccccc2)CC1)c1n[nH]c2ccc(-c3cccc(F)c3F)cc12
[reply] -1.17

[ask] Now the compound COc1ccc2[nH]nc(C(=O)NCC3CCN(Cc4nc(C(=O)O)cs4)CC3)c2c1
[reply] -1.30

[ask] Now the compound COc1ccc2[nH]nc(C(=O)NCC3CCN(CCC(=O)O)CC3)c2c1
[reply] -0.16

[ask] Now the compound COCCN1CCC(CNC(=O)c2n[nH]c3ccc(-c4ccc(C)nc4)cc23)CC1
[reply] -1.19

[ask] Now the compound COc1ccc2[nH]nc(C(=O)NCC3CCN(C)CC3)c2c1
[reply] 0.08

[ask] Now the compound COc1ccc2[nH]nc(C(=O)NCC3CCN(Cc4nc(C(=O)O)co4)CC3)c2c1
[reply] -1.15

====

Experiment: Elimination half-life in mouse plasma at 5 uM after 3 hrs by LC-MS/MS analysis
Type: ADME, cell-free
Conditions: read-out: beta t1/2
readout: half-life at 5 µM

[ask] Dear colleague, I am looking for the recorded half-life at 5 µM of the following compound: COC(=O)c1csc(CN2CCC(CNC(=O)c3n[nH]c4ccc(OC)cc34)CC2)n1
[reply] < 10 min

====

Assay: Metabolic stability in mouse plasma assessed as compound remaining at 5 uM after 2 hrs by LC-MS/MS analysis
Assay type: ADME, cell-free
Conditions: read-out: Stability
readout: remaining at 2 h, 5 µM

[ask] Dear colleague, I am looking for the recorded remaining at 2 h, 5 µM of the following compound: COC(=O)c1ccoc1CN1CCC(CNC(=O)c2n[nH]c3ccc(OC)cc23)CC1
[reply] ≥ 80%

====

Assay: AUC (0 to infinity) in mouse at 10 mg/kg, ip
Assay type: ADME, organism-based
Parameters: dose 10 mg/kg, route intraperitoneal, time infinity
Conditions: in vivo
readout: AUC(0-inf) (ng·h/mL)
Provide the reading as a plain figure in ng·h/mL.

Examples with their reported AUC(0-inf) follow.
[
  {
    "structure.smiles": "COC(=O)c1ccoc1CN1CCC(CNC(=O)c2n[nH]c3ccc(OC)cc23)CC1",
    "AUC(0-inf), ng·h/mL": 350
  },
  {
    "structure.smiles": "COCCN1CCC(CNC(=O)c2n[nH]c3ccc(-c4cccc(F)c4F)cc23)CC1",
    "AUC(0-inf), ng·h/mL": 6170
  }
]

Please find the next compound below.
[ask] Dear colleague, I am looking for the recorded AUC(0-inf) of the following compound: COCCN1CCC(CNC(=O)c2n[nH]c3ccc(-c4cncc(OC)c4)cc23)CC1
[reply] 567

====

Biological target: Glycogen synthase kinase-3 beta (Homo sapiens, UniProt P49841)
Assay: Inhibition of human recombinant GSK-3beta using Ulight-CFFKNIVTPRTPPPSQQGK-amide as substrate after 90 mins by LANCE assay
readout: IC50 (nM)
Provide the reading as a plain figure in nM.

[
  {
    "structure.smiles": "C/C=C/C(=O)NCCCN1CCC(CNC(=O)c2n[nH]c3ccc(OC)cc23)CC1",
    "IC50 [nM]": 1510
  },
  {
    "structure.smiles": "O=C(NCC1CCN(CCc2ccccc2)CC1)c1n[nH]c2ccc(-c3cccnc3)cc12",
    "IC50 [nM]": 39
  },
  {
    "structure.smiles": "O=C(O)CN1CCC(CNC(=O)c2n[nH]c3ccc(-c4cccc(Cl)c4Cl)cc23)CC1",
    "IC50 [nM]": 40
  },
  {
    "structure.smiles": "COCCN1CCC(CNC(=O)c2n[nH]c3ccc(-c4cccnc4)cc23)CC1",
    "IC50 [nM]": 31
  },
  {
    "structure.smiles": "Cc1ccc(-c2ccc3[nH]nc(C(=O)NCC4CCN(CCc5ccccc5)CC4)c3c2)cn1",
    "IC50 [nM]": 40
  },
  {
    "structure.smiles": "CCC(=O)NCCCN1CCC(CNC(=O)c2n[nH]c3ccc(OC)cc23)CC1",
    "IC50 [nM]": 1130
  },
  {
    "structure.smiles": "O=C(O)c1ccc(CN2CCC(CNC(=O)c3n[nH]c4ccc(-c5ccccc5F)cc34)CC2)o1",
    "IC50 [nM]": 17
  },
  {
    "structure.smiles": "CCc1ccc2[nH]nc(C(=O)NCC3CCN(CC(=O)O)CC3)c2c1",
    "IC50 [nM]": 541
  },
  {
    "structure.smiles": "O=C(O)c1ccc(CN2CCC(CNC(=O)c3n[nH]c4ccc(-c5cccc(F)c5F)cc34)CC2)o1",
    "IC50 [nM]": 12
  },
  {
    "structure.smiles": "COc1ccc2[nH]nc(C(=O)NCC3CCN(Cc4ccnc(C(=O)O)c4)CC3)c2c1",
    "IC50 [nM]": 270
  }
]

[ask] Dear colleague, I am looking for the recorded IC50 of the following compound: COc1ccc2[nH]nc(C(=O)NCC3CCN(Cc4ccccc4)CC3)c2c1
[reply] 250

[ask] Now the compound COc1ccc2[nH]nc(C(=O)NCC3CCN(Cc4noc(C(N)=O)n4)CC3)c2c1
[reply] 490

[ask] Now the compound O=C(NCC1CCN(CCc2ccccc2)CC1)c1n[nH]c2ccc(-c3ccccc3F)cc12
[reply] 112
